Assay: XTT metabolic assay to determine replicon cell viability
Settings: human, HCV replicon cells (Huh7)
Source text: Inflamation Research. […] It is assumed that the level of GAPDH mRNA, which is a constitutively expressed housekeeping gene, is the same in all viable cells. […] In the Replicon Assay, it is assumed that the measured inhibition of HCV RNA replicon accumulation is the sum of the actual inhibition of HCV RNA replicon accumulation and the apparent inhibition of HCV RNA replicon accumulation due to cytoxicity. […]
Listed below: CC50 values for each entry.

Compound: CCC[C@H](NC(=O)[C@@H]1[C@H]2CCC[C@H]2CN1C(=O)[C@@H](NC(=O)[C@@H](NC(=O)c1cnccn1)C1CCCCC1)C(C)(C)C)C(=O)C(=O)NC1CC1
Unit info: µM
Op: =
CC50: 64.7
//
Compound: CCC[C@H](NC(=O)C1[C@H]2CCC[C@H]2CN1C(=O)[C@@H](NC(=O)[C@@H](NC(=O)[C@@H](C)NC(=O)OC)C1CCCCC1)C(C)(C)C)C(=O)C(=O)NC1CC1 (some centres unmarked)
Unit info: µM
Op: >
CC50: 50

These data points were gathered from patent US20140294763A1.
